Values compiled from patent US20190315842A1.

- Tgt: T1, GPPPPIDNGDITSFP(GGGK-biotin)
- T1 construct: also called biotinylated 15-mer peptide; biotinylated 19-mer
- T1 peptide: GPPPPIDNGDITSFPGGGK(Biotin)
- Test: ELISA: biotinylated peptide captured on immobilized Neutravidin, antibody at 0.5 µg/ml, anti-human IgG-HRP/ABTS, OD 405 nm
Where no end group is shown, it is not given here. The star is where a group is joined. Biotin = O=C1N[C@H]2[C@H](CS[C@H]2CCCCC(=O)*)N1
Observed property: binding result

7958/5992 (antibody, V domains shown, also called clone 4; H007958/K005992) VH: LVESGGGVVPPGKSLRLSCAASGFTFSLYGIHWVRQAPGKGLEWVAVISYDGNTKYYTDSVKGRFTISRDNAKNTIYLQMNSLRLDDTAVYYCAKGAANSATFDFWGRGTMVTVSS VL: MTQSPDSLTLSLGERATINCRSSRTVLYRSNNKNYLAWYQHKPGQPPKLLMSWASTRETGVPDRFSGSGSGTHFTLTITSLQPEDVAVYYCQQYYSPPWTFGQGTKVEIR : binds
Ab7961/293i (antibody, IgG1, V domains shown, Recombinant human antibody with IgG1 heavy chain backbone and kappa light chain constant; they begin at LVESGGG and MTQSP; also called mAb 7961; clone 24) VH: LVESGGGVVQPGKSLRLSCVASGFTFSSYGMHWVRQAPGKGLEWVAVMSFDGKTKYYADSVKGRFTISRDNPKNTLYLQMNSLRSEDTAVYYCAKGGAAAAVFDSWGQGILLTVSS VL: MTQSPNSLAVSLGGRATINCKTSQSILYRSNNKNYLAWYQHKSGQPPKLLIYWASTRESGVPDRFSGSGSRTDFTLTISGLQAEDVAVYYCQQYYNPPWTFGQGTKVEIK : binds
Ab7957/293i (antibody, IgG1, V domains shown, Recombinant human antibody with IgG1 heavy chain backbone and kappa light chain constant; they begin at LVESGGG and MTQSP; also called Ab7957i; mAb 7957) VH: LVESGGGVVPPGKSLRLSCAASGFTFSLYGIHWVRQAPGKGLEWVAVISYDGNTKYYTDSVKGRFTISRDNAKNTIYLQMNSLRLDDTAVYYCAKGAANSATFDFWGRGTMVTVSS VL: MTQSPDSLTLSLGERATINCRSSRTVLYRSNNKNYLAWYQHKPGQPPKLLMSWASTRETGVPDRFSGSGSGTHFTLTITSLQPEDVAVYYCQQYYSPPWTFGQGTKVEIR : binds
Ab7968 (antibody, IgG1, V domains shown, Recombinant human antibody with IgG1 heavy chain backbone and kappa light chain constant; they begin at LVESGGG and MTQSP; also called mAb 7968; mAb7968) VH: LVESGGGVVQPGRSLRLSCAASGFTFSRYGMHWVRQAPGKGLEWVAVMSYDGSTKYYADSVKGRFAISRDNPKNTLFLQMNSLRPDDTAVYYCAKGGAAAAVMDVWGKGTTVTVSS VL: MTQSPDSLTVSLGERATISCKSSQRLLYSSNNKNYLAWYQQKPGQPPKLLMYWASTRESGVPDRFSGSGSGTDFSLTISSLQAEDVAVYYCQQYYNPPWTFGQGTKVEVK : binds

Item: 7965/6000 (antibody, V domains shown, also called clone 12; H007965/K006000) VH: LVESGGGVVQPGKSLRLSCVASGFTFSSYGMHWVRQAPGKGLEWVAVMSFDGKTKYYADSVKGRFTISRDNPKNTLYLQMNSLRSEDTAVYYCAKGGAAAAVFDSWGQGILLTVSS VL: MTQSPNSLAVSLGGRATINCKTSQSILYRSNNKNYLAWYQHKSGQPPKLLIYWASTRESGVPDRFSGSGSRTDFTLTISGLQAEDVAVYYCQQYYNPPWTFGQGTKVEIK | binding result: binds
